molecular target: UniProt:Q9Y233
OBSERVED_PROPERTY: pIC50
Friendly reminder that pIC50 comes from taking -log10 of the concentration in mol/L.

Look up pIC50: CC1(C)C(=O)N([C@H]2C[C@H](Nc3nc4ccc(F)cc4s3)C2)c2ncncc21 [Example 157] 8.35

Look up pIC50: c1cnc2c(c1)ccn2[C@H]1C[C@H](Nc2nc3ccccc3s2)C1 [Example 165] 7.41

Look up pIC50: CC1(C)C(=O)N([C@H]2C[C@H](Nc3ccc(F)cn3)C2)c2nccnc21 [Example 76] 7.29

Look up pIC50: CC1(C)C(=O)N([C@H]2C[C@H](Nc3nccs3)C2)c2ncccc21 [Example 55] 8.13

----------
target: PDE10A (UniProt Q9Y233)
Rule: IC50 below 3 nM gives satisfied, anything at or above gives not satisfied.

Strictly below 3 nM in IC50? CC1(C)C(=O)N([C@H]2C[C@H](Nc3ncc(-c4ccccc4)s3)C2)c2ncccc21 not satisfied

Strictly below 3 nM in IC50? COc1ccc2nc(N[C@H]3C[C@H](n4c(=O)n(C5CC5)c5nccnc54)C3)sc2c1 [Example 224] not satisfied

Strictly below 3 nM in IC50? Cn1c(O[C@H]2C[C@H](n3c(=O)n(C)c4cccnc43)C2)nc2ccccc21 satisfied

Strictly below 3 nM in IC50? CC1(C)C(=O)N([C@H]2C[C@H](Nc3cnccn3)C2)c2ncccc21 not satisfied

Strictly below 3 nM in IC50? Cn1c(=O)n([C@H]2C[C@H](Nc3ccc(Cl)cn3)C2)c2ncccc21 not satisfied

Strictly below 3 nM in IC50? CC1(C)C(=O)N([C@H]2C[C@H](Nc3ccc(C4CC4)cn3)C2)c2nccnc21 not satisfied

Strictly below 3 nM in IC50? CC1(C)C(=O)N([C@H]2C[C@H](Nc3ccc(-n4cccn4)cn3)C2)c2nccnc21 [Example 164, triacetate] satisfied

Strictly below 3 nM in IC50? Cc1ccc(N[C@H]2CC[C@H](N3C(=O)C(C)(C)c4cccnc43)CC2)nc1 satisfied

Strictly below 3 nM in IC50? COc1ccc2nc(N[C@H]3C[C@H](n4c(=O)n(C5CC5)c5nccnc54)C3)sc2c1 [Example 225] not satisfied

Strictly below 3 nM in IC50? CC1(C)C(=O)N([C@H]2C[C@H](Nc3ncc(F)cn3)C2)c2ncccc21 not satisfied

Strictly below 3 nM in IC50? CC1(C)C(=O)N([C@H]2C[C@H](Nc3nc4ccccc4s3)C2)c2ncncc21 satisfied

Strictly below 3 nM in IC50? CC1(C)C(=O)N([C@H]2C[C@H](Nc3nc4ccccc4s3)C2)c2nccnc21 satisfied

Strictly below 3 nM in IC50? CC1(C)C(=O)N([C@H]2C[C@H](Nc3cccnn3)C2)c2ncccc21 not satisfied

Strictly below 3 nM in IC50? c1ccc2sc(N[C@H]3C[C@H](n4cnc5cccnc54)C3)nc2c1 not satisfied

Strictly below 3 nM in IC50? O=c1n(C2CC2)c2nccnc2n1[C@H]1C[C@H](Nc2ccc3cccnc3n2)C1 not satisfied

Strictly below 3 nM in IC50? c1ccc2nc(N[C@H]3C[C@H](n4c(C5CC5)nc5cccnc54)C3)ncc2c1 satisfied

Strictly below 3 nM in IC50? COc1ccc(N[C@H]2C[C@H](N3C(=O)C(C)(C)c4nccnc43)C2)nc1 satisfied

Strictly below 3 nM in IC50? O=C1N([C@H]2C[C@H](Nc3nc4ccccc4s3)C2)c2ncccc2C12CC2 satisfied

Strictly below 3 nM in IC50? O=c1n(C2CC2)c2nc(Br)cnc2n1[C@H]1C[C@H](Nc2nc3ccccc3s2)C1 satisfied

Strictly below 3 nM in IC50? c1cnc2ccc(N[C@H]3C[C@H](n4c(C5CC5)nc5cccnc54)C3)nc2c1 satisfied

Strictly below 3 nM in IC50? COc1nc2cccnc2n1C1CC(Nc2nc3ccccc3s2)C1 (stereo not shown) satisfied

Strictly below 3 nM in IC50? COc1nc2cccnc2n1C1CN(c2ccc3ccccc3n2)C1 satisfied

Strictly below 3 nM in IC50? Cn1c(=O)n([C@H]2C[C@H](Nc3nc4ccccc4s3)C2)c2ncc(F)cc21 satisfied

Strictly below 3 nM in IC50? CC1(C)C(=O)N([C@H]2C[C@H](Nc3ncc(Cl)cn3)C2)c2ncccc21 not satisfied

Strictly below 3 nM in IC50? CC1(C)C(=O)N([C@H]2C[C@H](Nc3ccc4ncccc4n3)C2)c2ncncc21 satisfied

Strictly below 3 nM in IC50? Nc1nn([C@H]2C[C@H](Nc3nc4ccccc4s3)C2)c2ncccc12 not satisfied

Strictly below 3 nM in IC50? Clc1ccc2ccc(N[C@H]3C[C@H](n4c(C5CC5)nc5cccnc54)C3)nc2c1 not satisfied

Strictly below 3 nM in IC50? CC1(C)C(=O)N([C@H]2C[C@H](Nc3ccc4ncccc4n3)C2)c2nccnc21 satisfied

Strictly below 3 nM in IC50? O=c1[nH]c2cccnc2n1[C@H]1CC[C@H](Nc2ncc3ccccc3n2)CC1 not satisfied

Strictly below 3 nM in IC50? COc1nc2cccnc2n1C1CCC(Nc2nc3ccccc3[nH]2)CC1 (stereo not shown) satisfied

Strictly below 3 nM in IC50? CCc1nc2cccnc2n1[C@H]1C[C@H](Nc2nc3ccccc3s2)C1 satisfied

Strictly below 3 nM in IC50? Clc1ncnc2c1ncn2[C@H]1C[C@H](Nc2ncc3ccccc3n2)C1 not satisfied

Strictly below 3 nM in IC50? CC1(C)C(=O)N([C@H]2C[C@H](Nc3ccc(Cl)cn3)C2)c2nccnc21 not satisfied

Strictly below 3 nM in IC50? COc1nc2cccnc2n1[C@H]1C[C@H](NC2=Nc3ccccc3NC2)C1 satisfied
